Entries and their Kd
biological target: dried fibrin (Homo sapiens, UniProt P02671+P02675+P02679); construct: Thrombin cleavage at the Arg16-Arg17 bond in the Ax chains and at the Arg14-Gly15 bond on the BP chains releases fibrinopeptides A and B; assay: dissociation constant against dried fibrin (free peptide by mass spectrometry)
Bridge positions count the residues as written; N and C are the ends. Peptide text beside a SMILES is read from it.
// units = µM; emit number, no label

Example cases with answers are listed next.
# Compound, Target System, Endpoint Unit, Kd
records = [
    ("CC(C)CC(N)C(=O)N1CCCC1C(=O)NC1CSSCC(C(=O)NC(CC(C)C)C(=O)NC(CC(=O)O)C(N)=O)NC(=O)C(C(C)O)NC(=O)CNC(=O)C(Cc2ccc(O)cc2)NC(=O)C(Cc2ccc(O)cc2)NC(=O)C(CC(=O)O)NC1=O (stereo not shown)", "dried fibrin (Homo sapiens, UniProt P02671+P02675+P02679)", "µM", 2.7),
    ("CC(C)C[C@H](NC(=O)[C@@H]1CSSC[C@H](NC(=O)[C@@H]2CCCN2C(=O)[C@@H](N)CC(C)C)C(=O)N[C@@H](C)C(=O)N[C@@H](Cc2ccc(O)cc2)C(=O)N[C@@H](Cc2ccc(O)cc2)C(=O)NCC(=O)N[C@@H]([C@@H](C)O)C(=O)N1)C(=O)N[C@@H](CC(=O)O)C(N)=O [SEQ ID NO: 42, LPCAYYGTCLD] (H-LPCAYYGTCLD-NH2; disulfide 3-9)", "dried fibrin (Homo sapiens, UniProt P02671+P02675+P02679)", "µM", 23),
]

Prompt: # Kd lookup, item CC(C)C[C@H](NC(=O)[C@@H]1CSSC[C@H](NC(=O)[C@H](C)NC(=O)[C@@H](N)Cc2ccccc2)C(=O)N[C@@H](Cc2c[nH]cn2)C(=O)N[C@@H](Cc2ccc(O)cc2)C(=O)N[C@@H](Cc2ccc(O)cc2)C(=O)NCC(=O)N[C@@H]([C@@H](C)O)C(=O)N1)C(=O)N[C@@H](Cc1c[nH]cn1)C(N)=O [SEQ ID NO: 7, FACHYYGTCLH] (H-FACHYYGTCLH-NH2; disulfide 3-9)
Response: 23
